Reported melting point values for a set of compounds
Structures can show the parent of a compound that is named as a salt.

Take a look at these entries with their results.
CN(C)CC(=O)NCCn1c(-c2ccc[nH]2)nc2c(C(F)(F)F)nc3ccccc3c21.O=C(O)/C=C/C(=O)O :: 219 to 222 °C (dec.)
FC(F)(F)c1nc2ccccc2c2c1nc(-c1ccc[nH]1)n2CCC1CCNCC1 :: 280 to 282.5 °C (dec.)
FC(F)(F)c1nc2ccccc2c2c1nc(-c1ccccc1)n2CCN1CCNCC1 :: 187 to 188 °C

Then this compound:
Query: Please look up its melting point: N#Cc1nc2ccccc2c2c1nc(-c1ccccc1)n2CCC1CCNCC1 (as salt: trifluoroacetate) (hydrate or solvate)
Response: 245 to 251 °C (dec.)

###

Structures can show the parent of a compound that is named as a salt.
QUANTITY NAME: melting point

Completed entries (count: 3):
NCCn1c(-c2ccccc2)nc2c(C(F)(F)F)nc3ccccc3c21 :: 174.5 to 175.5 °C
FC(F)(F)c1nc2ccccc2c2c1nc(-c1ccccc1)n2CCC1CNCCO1 (stereo not shown) (as salt: trifluoroacetate) (hydrate or solvate) :: 224 to 228 °C (dec.)
Cc1ccc2c(c1)nc(C(F)(F)F)c1nc(-c3nccs3)n(CCC3CCNCC3)c12 (as salt: trifluoroacetate) (hydrate or solvate) :: 239 to 241 °C (dec.)

Query: For `c1ccc(-c2nc3c(-c4ccco4)nc4ccccc4c3n2CCC2CCNCC2)cc1` , what is its reported melting point?
Response: 224.5 to 225.5 °C

Query: Moving on to Cc1cccc2c1nc(C(F)(F)F)c1nc(-c3ccc[nH]3)n(CCC3CCNCC3)c12 (as salt: trifluoroacetate) (hydrate or solvate)
Response: 233 to 234 °C (dec.)

Query: Try `CN(C)CC(=O)NCCn1c(-c2ccccc2)nc2c(C(F)(F)F)nc3ccccc3c21.O=C(O)/C=C/C(=O)O` next.
Response: 207.5 to 208 °C

Query: Now this one: O=C(O)c1nc2ccccc2c2c1nc(-c1ccccc1)n2CCC1CCNCC1 (as salt: trifluoroacetate) (hydrate or solvate)
Response: 212 to 215 °C

###

Counter-ions that a name gives are not always drawn.
QUANTITY NAME: melting point

Fc1ccc2c(c1)nc(C(F)(F)F)c1nc(-c3ncc[nH]3)n(CCC3CCNCC3)c12 (as salt: trifluoroacetate) (hydrate or solvate) [Example 83] :: 249 to 250 °C (dec.)
FC(F)(F)c1nc2ccccc2c2c1nc(-c1ccccc1)n2CCC1CC2CCC(C1)N2 (stereo not shown) (as salt: trifluoroacetate) :: 249 to 251 °C (dec.)
Cc1cccc2c1nc(C(F)(F)F)c1nc(-c3nccs3)n(CCC3CCNCC3)c12 (as salt: trifluoroacetate) [Example 95] :: 243 to 245 °C (dec.)
c1ccc(-c2nc3c(-c4cccs4)nc4ccccc4c3n2CCC2CCNCC2)cc1 (as salt: salt) [Example 115] :: 210 to 212 °C
c1c[nH]c(-c2nc3c(C4CC4)nc4ccccc4c3n2CCC2CCNCC2)c1 (hydrate or solvate) [Example 111] :: 212 to 213.5 °C
FC(F)(F)c1nc2ccccc2c2c1nc(-c1ccco1)n2CCC1CCNCC1 (as salt: trifluoroacetate) (hydrate or solvate) :: 133.5 to 136.5 °C (dec.)
Cc1ccc2c(c1)nc(C(F)(F)F)c1nc(-c3ccccc3)n(CCC3CCNCC3)c12 (as salt: trifluoroacetate) [Example 86] :: 234 to 235 °C (dec.)
FC(F)(F)c1nc2cc(Cl)ccc2c2c1nc(-c1ccco1)n2CCC1CCNCC1 (as salt: trifluoroacetate) :: 219 to 221 °C (dec.)

Query: Which melting point is listed for FC(F)(F)c1nc2ccccc2c2c1nc(-c1cccs1)n2CCC1CCNCC1 (as salt: trifluoroacetate) (hydrate or solvate) [Example 66] ?
Response: 237 to 239 °C

Query: For FC(F)(F)c1nc2cc(Cl)ccc2c2c1nc(C1CCCC1)n2CCC1CCNCC1 (as salt: trifluoroacetate) then?
Response: 246 to 248 °C (dec.)

Query: What do you get for Cc1ccc2c(c1)nc(C(F)(F)F)c1nc(-c3cccs3)n(CCC3CCNCC3)c12 (as salt: trifluoroacetate) (hydrate or solvate) [Example 91] ?
Response: 236 to 238 °C (dec.)

Query: Then this molecule: c1ccc(-c2nc3ccccc3c3c2nc(-c2ccccc2)n3CCC2CCNCC2)cc1 [Example 112]
Response: 209 to 211 °C

Query: Thanks! And Cc1cccc2c1nc(C(F)(F)F)c1nc(-c3ncc[nH]3)n(CCC3CCNCC3)c12 (as salt: trifluoroacetate) (hydrate or solvate) [Example 96] ?
Response: 306 to 308 °C (dec.)
